# Tested on: HT29 colon
# PROTOCOL: NCI-60 one-dose screen, 48 h (100 = growth as untreated, 0 = no growth, -100 = all killed)
# TEST_CONTEXT: 10 µM unless noted
The panel holds about 83,000 compounds, 20% with a hit somewhere; the sample as a whole holds those more often.
1 means recorded growth is 60% or above; -1 means it is below 60%.

                      smiles_representation  assigned_category
0  O=C1C(Cl)=C(Nc2cccc3ccccc23)C(=O)c2ccccc21                  1
1                     COC(=O)CSc1ccc(Cl)cc1                  1
2    Cc1c(C(=O)Nc2ccccc2F)sc2c(=O)[nH]cnc12                  1
3  O=C(CC(=O)c1ccccc1F)Nc1ccc([N+](=O)[O-])cc1                  1
4  COc1ccccc1CNCCCN1C(=O)c2ccc3c4c(ccc(c24)C1=O)C(=O)N(CCCOCCCCOCCCN)C3=O                 -1
5  Cn1cnc([N+](=O)[O-])c1S(=O)(=O)Oc1cccc2ccccc12                 -1
